B1: LINE1-full (parent)
chain: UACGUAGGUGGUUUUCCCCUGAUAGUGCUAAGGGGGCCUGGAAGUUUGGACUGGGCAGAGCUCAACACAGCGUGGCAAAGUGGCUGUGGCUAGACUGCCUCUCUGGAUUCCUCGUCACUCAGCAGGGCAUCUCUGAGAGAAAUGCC

variants of: B1; assay: self-cleavage, relative activity (ratio to wild type); higher = more cleavage; in vitro, sequencing; the parent is a self-cleaving ribozyme
Outcome: TRUE for self-cleavage of at least 0.8; FALSE for anything lower.

Enquiry: Hello, I need to know if UACGUAGGUGGUUUUCCCCUGAUAGUGCUAAGGGGGCCUGGAAGUUUGGACUGGGCAGAGCUCAACACAGCGUGGCAUAGUGGCUGUGGCUAGACUGCCUCUCUGGAUUCCUCGUCACUCAGCAGGGCAUCUCUGAGGGAAAUGCC has measured self-cleavage not below 0.8. Thanks!
Return: TRUE

Enquiry: Hello, I need to know if UACGUAGGUGGUUUUCCCCUGAUAGUGCUAAGGGGGCCUGGAAGUUUGGACUGGGCAGAGCUCAACACAGCGUGGCAAAGUGGCUGUGGCUAGACUGCCUCUCUGGAUUCUUCGCCACUCAGCAGGGCAUCUCUGAGAGAAAUGCC has measured self-cleavage not below 0.8. Thanks!
Return: TRUE

Enquiry: Hello, I need to know if UACGUAGGUGGUUUUCCCCUGAUAGUGCUAAGGGGGCCUGGAAGUCUGGACUGGGCAGAGCUCAACACAGCGUGGCAAAGUGGCUGUGGCUAGACUGCCUCUCUGGAUUCCUCGUCACUCAGCAGGGCACCUCUGAGAGAAAUGCC has measured self-cleavage not below 0.8. Thanks!
Return: TRUE

Enquiry: Hello, I need to know if UACGUAGGUGGUUUUCCCCUGAUAGUGCUAAGGGGGCCUGGAAGUUUGGACUGGGCAGAGCUCAACACAGCGUGGCAAAGUGGCUGUGGCUAGACUGCCUCUCUGGAUUCCUCGUCGCUCAGCAGGGCAUCACUGAGAGAAAUGCC has measured self-cleavage not below 0.8. Thanks!
Return: FALSE

Enquiry: Hello, I need to know if UACGUAGGUAGCUUUCCCCUGAUAGUGCUAAGGGGGCCUGGAAGUUUGGACUGGGCAGAGCUCAACACAGCGUGGCAAAGUGGCUGUGGCUAGACUGCCUCUCUGGAUUCCUCGUCACUCAGCAGGGCAUCUCUGAGAGAAAUGCC has measured self-cleavage not below 0.8. Thanks!
Return: TRUE

Enquiry: Hello, I need to know if UACGUAGGUGGUUUUCCCCUGAAAGUGCUAAGGGGGCCUGGAAGUUUGGACUGGGCAGAGCUCAACACAGCGUGGCAAAGUGGCUGUGGCUAGACUGCCUCUCUGGAUUCCUCGUCACUCAGCAGGGCAUCUCUGAGAGAAAAGCC has measured self-cleavage not below 0.8. Thanks!
Return: TRUE

Enquiry: Hello, I need to know if UACGUAAGUGGUUUUCCCCUGAUAGUGCUAAGGGGGCCUGGAAGUUUGGACUGGGCAGAGCUCAACACAGCGUGGCAAAGUGGCUGUGGCUAGACUGCCUCUCUGGAUUCCUCGUCACUCAGCGGGGCAUCUCUGAGAGAAAUGCC has measured self-cleavage not below 0.8. Thanks!
Return: FALSE

Enquiry: Hello, I need to know if UACGUAGGUGGUUUGCCCCUGAUAGUGCUAAGGGGGCCUGGAAGUUUGGACUGGGCAGAGCUCAACACAGCGUGGCAAAGUGGCUGUGGCUAGACUGCCUCUCUGGAUUCCUCGUCACUCAGCAGGGCAUCUCUGAGAGAAAUGCC has measured self-cleavage not below 0.8. Thanks!
Return: TRUE

Enquiry: Hello, I need to know if UACGUAGGUGGUUUUCCCCUGAUAGUGCUAUGGGGGCCUGGAAGUUUGGACUGGGCAGAGCUCAACACAGCGUGGCAAAGUGGCUGUUGCUAGACUGCCUCUCUGGAUUCCUCGUCACUCAGCAGGGCAUCUCUGAGAGAAAUGCC has measured self-cleavage not below 0.8. Thanks!
Return: FALSE

Enquiry: Hello, I need to know if UACGUAGGUGGUUUUCCCCUGAUAGUGCUAAGGGGGCCUGGAAGUUCGGACUGGGCAGAGCUUAACACAGCGUGGCAAAGUGGCUGUGGCUAGACUGCCUCUCUGGAUUCCUCGUCACUCAGCAGGGCAUCUCUGAGAGAAAUGCC has measured self-cleavage not below 0.8. Thanks!
Return: FALSE

Enquiry: Hello, I need to know if UACGUAGGUGGUUUUCCCCUGAUAGUGCUAAGGGGGCCUGGAAGUUUGGACUGGGCAGAGCUCAACACAGCGUGGCAAUGUGGCUGUGGCUAGACUGCCUCUCUGGAUUCCUCGUCACUCAGCUGGGCAUCUCUGAGAGAAAUGCC has measured self-cleavage not below 0.8. Thanks!
Return: FALSE

Enquiry: Hello, I need to know if UACGUAGGUGGUUUUCCCCUGGUAGUGCUAAGGGGGCCUGGAAGUUUGGACUAGGCAGAGCUCAACACAGCGUGGCAAAGUGGCUGUGGCUAGACUGCCUCUCUGGAUUCCUCGUCACUCAGCAGGGCAUCUCUGAGAGAAAUGCC has measured self-cleavage not below 0.8. Thanks!
Return: TRUE

Enquiry: Hello, I need to know if UACGUAGGUGGUUUUCCCCUGAUAGUGCUAAGGGGGCCUGGAAGUUUGGACUGGGCAGAGCUCAACACAGCGUGGCAUAGUGGCUGUGGCAAGACUGCCUCUCUGGAUUCCUCGUCACUCAGCAGGGCAUCUCUGAGAGAAAUGCC has measured self-cleavage not below 0.8. Thanks!
Return: TRUE

Enquiry: Hello, I need to know if UACGUAGGCGGUUUUCCCCUGAUAGUGCUAAGGGGGCCUGGAAGUUUGGACUGGGCAGUGCUCAACACAGCGUGGCAAAGUGGCUGUGGCUAGACUGCCUCUCUGGAUUCCUCGUCACUCAGCAGGGCAUCUCUGAGAGAAAUGCC has measured self-cleavage not below 0.8. Thanks!
Return: FALSE

Enquiry: Hello, I need to know if UACGUAGGUGGUUUUCCCCUGAUAGUGCUAAGGGGGCCUGGAAGUUUGGACUGGGCAGAGCUCAACACAGCGUGGCAAAGUGGCUGUGGCUAGACUGCCUCUCCGGAUUCCUCGUCACUCAGCAGGGCAUCUCUGAGAGAAAUUCC has measured self-cleavage not below 0.8. Thanks!
Return: TRUE

Enquiry: Hello, I need to know if UACGUAGGUGGUUUUCCCCUGAUAGUGCUAAGGGGGCCUGGAAGUUUGGACUGGGCAGAGCUCAACACAGCGUGGCAAAGUGGCUGUGGCUAGACUGCCUCUCCGGAUUCCUCAUCACUCAGCAGGGCAUCUCUGAGAGAAAUGCC has measured self-cleavage not below 0.8. Thanks!
Return: TRUE

Enquiry: Hello, I need to know if UACGUAGGUGGUUUUCCCCUGAUAGUGCUAAAGGGGCCUGGAAGUUUGGACUGGGCAGAGCUCUACACAGCGUGGCAAAGUGGCUGUGGCUAGACUGCCUCUCUGGAUUCCUCGUCACUCAGCAGGGCAUCUCUGAGAGAAAUGCC has measured self-cleavage not below 0.8. Thanks!
Return: FALSE

Enquiry: Hello, I need to know if UACGUAGGUGGUUUUCCCCUGAUAGUGCUAAGGGGGCCUGGUAGUUUGGACUGGGCAGAGCUCAACACAGCGUGGCAAAGUGGCUGUGGCUAGACUGCCUCGCUGGAUUCCUCGUCACUCAGCAGGGCAUCUCUGAGAGAAAUGCC has measured self-cleavage not below 0.8. Thanks!
Return: FALSE

Enquiry: Hello, I need to know if UACGUAGGUGGUUUUCCCCUGAUAGUGCUAAGGGGGCCUGGAGGUUUGGACUGGGCAGAGCUCAACACAGCGUGACAAAGUGGCUGUGGCUAGACUGCCUCUCUGGAUUCCUCGUCACUCAGCAGGGCAUCUCUGAGAGAAAUGCC has measured self-cleavage not below 0.8. Thanks!
Return: TRUE

Enquiry: Hello, I need to know if UACGUAGGGGGUUUUCCCCUGAUAGUGCUAAGGGGGCCUGGAAGUUUGGACUGGGCAGAGCUCAACAUAGCGUGGCAAAGUGGCUGUGGCUAGACUGCCUCUCUGGAUUCCUCGUCACUCAGCAGGGCAUCUCUGAGAGAAAUGCC has measured self-cleavage not below 0.8. Thanks!
Return: FALSE

Enquiry: Hello, I need to know if UACGUAGGUGGUUUUCCCCUGAUAGUGCUUAGGGGGCCUGGAAGUUUGGACUGGGCAGAGCUCAACACAGCGUGGCAAAGUGGCUGUGGCUAGACUGCCUCUCUGGAUUCCUCGUCACUCAGCAGGGCACCUCUGAGAGAAAUGCC has measured self-cleavage not below 0.8. Thanks!
Return: TRUE
